# ASSAY_INFO: self-splicing fitness, log relative to wild type (ln ratio); higher = more splicing; Tetrahymena group I intron in knt gene, E. coli kanamycin selection, DiMSum; sequences stand for … in CUCUCU…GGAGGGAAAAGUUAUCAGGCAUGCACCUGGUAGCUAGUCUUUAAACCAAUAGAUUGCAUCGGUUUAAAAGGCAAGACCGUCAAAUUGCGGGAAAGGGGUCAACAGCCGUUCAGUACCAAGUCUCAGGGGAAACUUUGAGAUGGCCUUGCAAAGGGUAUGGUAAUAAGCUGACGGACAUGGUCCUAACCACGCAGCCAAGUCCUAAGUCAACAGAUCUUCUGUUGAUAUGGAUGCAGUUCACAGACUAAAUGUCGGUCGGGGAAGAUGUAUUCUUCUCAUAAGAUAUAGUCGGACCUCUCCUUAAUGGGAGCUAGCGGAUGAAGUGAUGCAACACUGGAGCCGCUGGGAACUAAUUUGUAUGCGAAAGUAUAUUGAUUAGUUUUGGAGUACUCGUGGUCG;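 also: selection with 25 µg/mL kanamycin versus none on LB agar overnight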
# ASSAY_CONDITIONS: 30 °C
Returns 1 if the recorded self-splicing fitness (ln) is greater than or equal to -3, and 0 otherwise.

RESIDUE_STRING	ASSIGNED_CATEGORY
CUCUAGCAAUAUUACGCACU	1

Answer whether self-splicing fitness (ln) of GCCAAGCAAUAUUACGCCAU is greater than or equal to -3.
0

Answer whether self-splicing fitness (ln) of GCUUAGCAAUAUUACGGGCU is greater than or equal to -3.
1

Answer whether self-splicing fitness (ln) of CGCGAGCAAUAUUACGCGGU is greater than or equal to -3.
0

Answer whether self-splicing fitness (ln) of CGGAAGCAAUAUUACGGCCC is greater than or equal to -3.
1
